- Tested on: human ovarian cancer cell A2780
- protocolDescription: proliferation inhibitory activity against A2780 cells (CellTiter-Glo)
- Assay type: cell-based
- measurementContext: A2780, 72 h, 1 μM test compound, 3 days of culture, read-out: proliferation inhibitory rate (%) of A2780 cells
testReadout: inhibition at 1 µM (%)
Your answer should be a plain number; it is taken to be in %.

Solved cases (2 shown):
N#C[C@@]1(C2CC2)CCN(c2ccnc(NC(=O)Cc3cccc(-c4cnsc4)c3)c2)C1=O [Example 50] ... 78
Cn1cc(-c2cccc(CC(=O)Nc3cc(N4CC[C@@](C#N)(C5CC5)C4=O)ccn3)c2)nn1 [Example 47] ... 66

What inhibition at 1 µM value was documented for this compound, N#C[C@@]1(C2CC2)CCN(c2ccnc(NC(=O)Cc3cccc(-c4cnn(CC5CCOCC5)c4)c3)c2)C1=O [Example 84] ?
55

Can you share its inhibition at 1 µM? I mean this compound: N#C[C@@]1(C2CC2)CCN(c2ccnc(NC(=O)Cc3cccc(-c4cnn(Cc5ccccc5)c4)c3)c2)C1=O [Example 79]
65

Which inhibition at 1 µM is reported for this compound? Cc1cc(N2CC[C@@](C#N)(C3CC3)C2=O)cc(NC(=O)Cc2cccc(-c3cnn(C)c3)c2)n1 [Example 30]
99

Query: inhibition at 1 µM; subject: N#C[C@@]1(C2CC2)CCN(c2ccnc(NC(=O)Cc3cccc(-c4cnn(CC5CC5)c4)c3)c2)C1=O [Example 64]
79

Please look up its inhibition at 1 µM: Cc1cc(N2CC[C@@](C#N)(C3CC3)C2=O)cc(NC(=O)Cc2ccccc2)n1 [Example 20]
63

====

- testedTarget: human PRS protein (Homo sapiens, UniProt P07814)
- Construct: to construct His-Avi-hEPRS (998-1512) expression plasmid; His tag (N); Avi tag (N); TEV cleavage site (ENLYFQ/GS, encoded by forward primer hEPRS-TEV-NheF) (N); made in house; host or cells: E. coli BL21(DE3)
- Sequence (P07814 998-1512): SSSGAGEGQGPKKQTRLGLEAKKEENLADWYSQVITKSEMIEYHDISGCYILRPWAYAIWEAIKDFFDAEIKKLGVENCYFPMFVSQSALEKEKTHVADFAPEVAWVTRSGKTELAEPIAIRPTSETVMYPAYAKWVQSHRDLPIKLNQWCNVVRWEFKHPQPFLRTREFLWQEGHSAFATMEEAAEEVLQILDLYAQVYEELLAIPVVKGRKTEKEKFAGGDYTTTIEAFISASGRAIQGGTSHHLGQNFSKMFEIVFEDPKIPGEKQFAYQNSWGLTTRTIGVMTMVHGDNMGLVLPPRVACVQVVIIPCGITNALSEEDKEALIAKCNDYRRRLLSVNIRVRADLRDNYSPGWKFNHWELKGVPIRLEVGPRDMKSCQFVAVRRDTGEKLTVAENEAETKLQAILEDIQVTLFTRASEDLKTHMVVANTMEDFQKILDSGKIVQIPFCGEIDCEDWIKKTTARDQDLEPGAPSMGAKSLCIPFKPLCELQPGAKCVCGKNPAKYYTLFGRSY
- protocolDescription: PRS inhibitory activity (ATP/[32P]pyrophosphate exchange enzyme reaction)
- Format: biochemical
- measurementContext: 300 nM test compound; recombinant human PRS (EPRS 998-1512); read-out: inhibitory rate (%) of PRS
Recorded inhibition at 0.3 µM for the following molecules
Answer in %, number only, no unit symbol.

CS(=O)(=O)CCn1cc(-c2cccc(CC(=O)Nc3cc(N4CC[C@@](C#N)(C5CC5)C4=O)ccn3)c2)cn1 ... 100

Consider the molecule `N#C[C@@]1(C2CC2)CCN(c2ccnc(NC(=O)Cc3cccc(-c4cnn(CCO)c4)c3)c2)C1=O` and give its measured inhibition at 0.3 µM.
100

Can you share its inhibition at 0.3 µM? I mean this molecule: `N#Cc1ccc(-c2cccc(CC(=O)Nc3cc(N4CC[C@@](C#N)(C5CC5)C4=O)ccn3)c2)s1`
96

What value of measured inhibition at 0.3 µM is listed for `N#C[C@@]1(C2CC2)CCN(c2ccnc(NC(=O)Cc3cccc(-c4cn[nH]c4)c3)c2)C1=O` ?
98

Entry `N#C[C@@]1(C2CC2)CCN(c2ccnc(NC(=O)Cc3ccsc3)c2)C1=O` : reported inhibition at 0.3 µM = ?
84

Please report the recorded inhibition at 0.3 µM for `Cc1ncc(-c2cccc(CC(=O)Nc3cc(N4CC[C@@](C#N)(C5CC5)C4=O)ccn3)c2)s1` .
97

State the recorded inhibition at 0.3 µM for this entry: `C=CC[C@]1(C#N)CCN(c2ccnc(NC(=O)Cc3cccc(-c4ccncc4)c3)c2)C1=O`
61
